molecular target: Tubulin (Bos taurus) (UniProt Q6B856+Q862F3); assay: Displacement of [3H]colchicine from bovine brain tubulin at 5 uM
Measurement Type: inhibition (%)
Give bare numbers, in %.

The examples below pair each entry with its known result.
                               smiles_entry  experimental_result
0  O=C(C1CC1)N1CCc2c1ccc1[nH]c(-c3ccccc3)cc(=O)c21                   30
1  N#CCCn1ccc2c3c(=O)cc(-c4ccccc4)[nH]c3ccc21                   20
2  O=C(C1CC1)n1ccc2c3c(=O)cc(-c4ccccc4)[nH]c3ccc21                   69

// switching to the query compound
Looking for the measured inhibition of "CCOC(=O)CCn1ccc2c3c(=O)cc(-c4ccccc4)[nH]c3ccc21" , can you help?
75
